All values here come from PubChem BioAssay.

# assay name: HepG2 cytotoxicity, primary screen, cytotoxicity control for P. falciparum antimalarial project, cell-based, ATP luminescence (AID 2303);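 also: 0% = DMSO wells and 100% = digitonin-killed cells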
# condition parameters: HepG2 viability, 24-48 h, at 10 µM
Activity calls are given as the source filed them.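 The calls were made as follows: active = inhibition above 50%; inactive = the rest.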
Give one outcome, nothing more. List: active, inactive

Worked examples follow.
COc1cccc(CCc2c(CCNCCCCCCNCCc3ccccc3)ccc(OC)c2OC)c1 : active
Ic1cc(CNC2CCCCC2)ccc1OCc1cccc(COc2ccc(CNC3CCCCC3)cc2I)c1 : inactive
CN1CCCN(Cc2cccc(-c3ccc(CNC(=O)c4cccc(Cl)c4)c(F)c3)c2)CC1 : active

Prompt: Recorded test outcome, item CCN(CCCN1CCCCC1)c1cc(C)nc(Nc2ccc(C)c(C)c2)n1
Completion: inactive

Prompt: Recorded test outcome, item Cc1cc2nc(-c3ccc(SCC(=O)Nc4ccc5c(c4)OCCO5)nc3)[nH]c2cc1C
Completion: inactive

###

# assay target: Calcium-dependent protein kinase 1 (Plasmodium falciparum (isolate 3D7)) (UniProt P62344)
# Sequence (P62344 whole entry, looked up): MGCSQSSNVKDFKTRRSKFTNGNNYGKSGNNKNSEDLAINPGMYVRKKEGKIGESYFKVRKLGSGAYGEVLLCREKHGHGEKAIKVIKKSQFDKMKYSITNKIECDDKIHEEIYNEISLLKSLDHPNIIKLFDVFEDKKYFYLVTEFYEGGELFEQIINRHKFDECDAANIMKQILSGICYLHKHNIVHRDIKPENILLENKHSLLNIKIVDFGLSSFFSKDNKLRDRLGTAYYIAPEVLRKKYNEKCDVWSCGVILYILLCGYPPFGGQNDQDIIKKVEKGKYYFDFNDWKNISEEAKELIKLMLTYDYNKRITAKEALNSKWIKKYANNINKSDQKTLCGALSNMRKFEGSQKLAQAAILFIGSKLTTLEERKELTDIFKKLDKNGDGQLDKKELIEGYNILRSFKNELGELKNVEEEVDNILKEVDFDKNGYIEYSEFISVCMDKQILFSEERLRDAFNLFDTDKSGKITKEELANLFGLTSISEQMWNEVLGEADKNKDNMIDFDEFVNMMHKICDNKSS
# assay name: PfCDPK1 kinase inhibitors, biochemical, TCAMS library (AID 1159585);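 also: inhibitors leave more ATP so luminescence rises with inhibition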
# condition parameters: recombinant PfCDPK1, Kinase-Glo ATP depletion luminescence
Results with a measured potency or affinity are listed apart. Activity calls are given as the source filed them. Cut-off not given; nearly all actives show IC50 up to about 0.98 µM.
measured attribute: outcome

Some compounds with recorded outcome:
COc1cc(N)c(Cl)cc1C(=O)NC1CCC(NCC2CCCCC2)CC1 (centres undefined) : inactive
COc1ccc2nccc([C@@H](O)CN3CCC(NC(=O)c4ccc(-c5ccc(C#N)cc5)cc4)CC3)c2c1 : inactive
Cc1ccc(Cn2nc(Cl)c(N3CCNCC3)cc2=O)cc1NC(=O)Nc1ccc(-c2ccccc2)cc1 : inactive
c1ccc(CCNCc2cccc(-c3ccccc3CNCc3ccc4c(c3)OCO4)c2)nc1 : inactive

Prompt: Query: outcome; subject: CC12CCC(C(=O)N(CC(O)Cn3c4ccc(Cl)cc4c4cc(Cl)ccc43)C1=O)C2(C)C (centres undefined)
Completion: inactive

Prompt: Query: outcome; subject: CN1CCC(NCc2cccc(-c3ccc(S(=O)(=O)NCCc4ccccn4)cc3)c2)CC1
Completion: inactive

Prompt: Query: outcome; subject: N#Cc1cc([N+](=O)[O-])ccc1-n1nc(-c2cccc(Cl)c2)n(Cc2ccco2)c1=S
Completion: inactive

Prompt: Query: outcome; subject: O=c1cc(NCCCN(Cc2ccccc2)Cc2ccccc2)[nH]c2ccccc12
Completion: inactive

Prompt: Query: outcome; subject: COc1ccc2nccc([C@@H](O)CN3CCC(NC(=O)/C=C/c4ccnc5ccccc45)CC3)c2c1
Completion: inactive

###

# assay name: HepG2 cytotoxicity, primary screen, cytotoxicity control for P. falciparum antimalarial project, cell-based, ATP luminescence (AID 2303);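 also: 0% = DMSO wells and 100% = digitonin-killed cells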
# condition parameters: HepG2 viability, 24-48 h, at 10 µM, active compounds read high
Overview of recorded inhibition for various compounds
Please respond with the number in % and leave the unit unwritten.

Some compounds with recorded inhibition:
CCN(CC)CCN(Cc1ccc(-c2ccc(C(F)(F)F)cc2)cc1)C(=O)Cn1cc(Cc2cnn(C)c2)c(=O)nc1/C=C/c1ccc(F)cc1 : 6
O=C(CN1CCC2(CCC1=O)CC(=O)c1ccccc1O2)NCCN1CCOCC1 (centres undefined) : 6
CN(C)CCNCc1ccc(-c2cccc(-c3nc4ccccc4[nH]3)c2)cc1 : 31
Cc1nc(Nc2ccc(C)c(Cl)c2)c2c(C)noc2n1 : 0

Prompt: Query: inhibition; subject: O=C(/C=C/c1ccc(Cl)c(Cl)c1)NCCCCCN1CCCC(c2c[nH]c3ccccc23)C1 (centres undefined)
Completion: 25

Prompt: Query: inhibition; subject: CC(=O)Nc1ncc(C(=O)Nc2cccc(-c3cccc(-c4nc5ccc(F)cc5[nH]4)c3)c2)s1
Completion: 27

Prompt: Query: inhibition; subject: CCc1c(C)nc(-n2nc(C)cc2NC(=O)c2ccc(OC)cc2OC)[nH]c1=O
Completion: 42

Prompt: Query: inhibition; subject: CC1CCN(CC[C@H]2CCCN2S(=O)(=O)c2cccc(NC(=O)c3ccc(-c4ccccc4)cc3)c2)CC1
Completion: 38

Prompt: Query: inhibition; subject: O=c1[nH]c(NCCCCCN2CCC(c3c[nH]c4ccccc34)CC2)ncc1Cc1ccc(Cl)c(Cl)c1
Completion: 21
